hERG current change (%, negative = inhibition) at 10uM values, listed per item
Target: human ether-à-go-go-related gene (hERG) potassium channel (human);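 further: peak tail current of the secondary pulse compared with the same well before compound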
Experiment: primary screen, population patch clamp on CHO cells stably expressing hERG; higher = less effect of the substance
Among all 310,000 compounds or so, about 14,000 (4.5%) showed an effect of 50% or more. Effects have a minus sign here. What follows is part of a selection rich in strong results, with near analogues and random picks from the rest.

Below, each entry is followed by its recorded hERG current change (%, negative = inhibition) at 10uM result.
{"columns": ["compound", "tested system", "reported result"],
 "data": [
  ["CSc1ccc(/C=C(/NC(=O)c2ccc(C)cc2)C(=O)Nc2cccc(F)c2)cc1", "human ether-à-go-go-related gene (hERG) potassium channel (human)", "6.66%"],
  ["Cc1ccc(NC(=O)/C(=C/c2ccncc2)NC(=O)c2ccccc2)cc1", "human ether-à-go-go-related gene (hERG) potassium channel (human)", "-9.82%"]
]}

Ask: Which hERG current change (%, negative = inhibition) at 10uM is listed for "Cc1ccc(C(=O)N/C(=C/c2ccc(F)cc2)C(=O)NCc2ccncc2)cc1" ?
Result: -72.8%

Ask: // same read-out, input: OC(CCN1CCOCC1)c1ccccc1 (centres unmarked)
Result: 4.54%

Ask: Can you check "O=C(NCc1ccncc1)/C(=C\c1ccc(F)cc1)NC(=O)c1ccccc1" next?
Result: -70.9%

---

Target: human ether-à-go-go-related gene (hERG) potassium channel (human, UniProt Q12809);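 further: peak tail current of the secondary pulse compared with the same well before compound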
Sequence (Q12809 whole entry, looked up): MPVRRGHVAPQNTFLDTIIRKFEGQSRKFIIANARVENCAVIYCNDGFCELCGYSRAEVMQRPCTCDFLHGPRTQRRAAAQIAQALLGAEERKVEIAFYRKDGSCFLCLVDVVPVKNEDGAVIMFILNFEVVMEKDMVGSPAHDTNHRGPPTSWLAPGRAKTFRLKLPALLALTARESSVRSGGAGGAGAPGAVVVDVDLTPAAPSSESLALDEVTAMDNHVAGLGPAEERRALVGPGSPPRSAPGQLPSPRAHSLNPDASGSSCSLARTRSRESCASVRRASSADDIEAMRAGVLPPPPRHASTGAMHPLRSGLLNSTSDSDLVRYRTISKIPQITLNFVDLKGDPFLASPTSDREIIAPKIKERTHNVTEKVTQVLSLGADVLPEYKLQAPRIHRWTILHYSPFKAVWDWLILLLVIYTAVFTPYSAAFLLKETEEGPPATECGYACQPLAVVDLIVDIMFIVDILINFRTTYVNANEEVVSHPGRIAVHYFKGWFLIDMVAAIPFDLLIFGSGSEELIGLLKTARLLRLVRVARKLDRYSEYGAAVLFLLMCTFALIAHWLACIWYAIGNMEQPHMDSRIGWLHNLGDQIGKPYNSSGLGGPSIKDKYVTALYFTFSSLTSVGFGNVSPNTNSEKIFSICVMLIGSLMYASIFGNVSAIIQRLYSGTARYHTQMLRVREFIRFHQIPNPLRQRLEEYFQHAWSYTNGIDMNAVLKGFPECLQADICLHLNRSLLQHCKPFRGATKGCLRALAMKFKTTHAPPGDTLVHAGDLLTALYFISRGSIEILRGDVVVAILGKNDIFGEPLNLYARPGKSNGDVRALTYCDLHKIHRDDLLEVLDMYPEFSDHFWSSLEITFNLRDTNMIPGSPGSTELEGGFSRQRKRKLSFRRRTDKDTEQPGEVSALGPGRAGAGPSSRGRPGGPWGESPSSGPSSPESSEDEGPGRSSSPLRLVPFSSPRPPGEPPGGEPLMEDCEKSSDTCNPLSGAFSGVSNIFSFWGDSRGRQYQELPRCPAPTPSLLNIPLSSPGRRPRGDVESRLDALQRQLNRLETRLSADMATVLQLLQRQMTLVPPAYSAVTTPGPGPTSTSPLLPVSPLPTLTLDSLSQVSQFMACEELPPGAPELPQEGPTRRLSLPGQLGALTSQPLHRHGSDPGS
Experiment: primary screen, population patch clamp on CHO cells stably expressing hERG; higher = less effect of the substance
Method: Briefly, Chinese hamster ovary (CHO) cells stably expressing the hERG channel were dislodged from tissue culture flasks and dispensed into PPC plates. […] During the recording, background leak currents were estimated by a 100 ms step to -80 mV from an initial holding potential of -70 mV and subtracted from the subsequent current measurement. The campaign was conducted in two phases using slight differences in recording protocol. […]
Hit rate of the full screen: of about 310,000 compounds, about 14,000 (4.5%) showed an effect of 50% or more. The effect is printed as a negative number. Many of the other results were omitted from the sample, so strong results are more common in it than they were.
measure: hERG current change (%, negative = inhibition) at 10uM (%)
Give the value, in units of %, as a plain number.

{"columns": ["compound", "reported result"],
 "data": [
  ["COc1cccc(-n2nnnc2SCC(=O)NCc2ccco2)c1", -2.06]
]}

Ask: Which hERG current change (%, negative = inhibition) at 10uM reading was recorded for the compound Cn1c(C(O)c2ccc3c(c2)OCO3)nc2ccccc21 (stereo not shown) ?
Result: 5.63

Ask: And for CCCOc1ccc(N2C(=O)CC(N3CCN(c4nc5ccccc5s4)CC3)C2=O)cc1 (stereo not shown) ?
Result: 8.46

Ask: Lookup "CCOc1ccc(N(CC(=O)NCCc2ccc(OC)cc2)S(C)(=O)=O)cc1"
Result: -0.0301

Ask: What do you get for O=C1CC(N2CCN(c3nc4ccccc4s3)CC2)C(=O)N1Cc1cccs1 (stereo not shown) ?
Result: -62.3

---

Target: human ether-à-go-go-related gene (hERG) potassium channel (human, UniProt Q12809);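 further: peak tail current of the secondary pulse compared with the same well before compound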
Assay: primary screen, population patch clamp on CHO cells stably expressing hERG; higher = less effect of the substance
Hit rate of the full screen: of about 310,000 compounds, about 14,000 (4.5%) showed an effect of 50% or more. Effects have a minus sign here. For the sample, strong results were picked, then their nearest neighbours and some compounds at random.
measure: hERG current change (%, negative = inhibition) at 10uM (%)
Give the value in % but do not write % after it.

{"columns": ["molecule", "unit abbreviation", "reported result"],
 "data": [
  ["COc1ccc(NC(=O)CSc2nc3ccccc3c(=O)n2CCNC(C)=O)cc1", "%", -73.6],
  ["COCCCn1c(SCC(=O)Nc2ccc(C)cc2)nc2ccccc2c1=O", "%", -2.1],
  ["COCCCn1c(SCC(=O)Nc2ccc(C(C)=O)cc2)nc2ccccc2c1=O", "%", -51.5],
  ["CC(=NCCc1c[nH]c2ccccc12)c1c(O)n(Cc2ccccc2)c(=O)[nH]c1=O", "%", 0.859],
  ["CCC(=O)Nc1c2c(nn1-c1ccc(OC)cc1)CS(=O)C2 (stereo not shown)", "%", 9.94]
]}

Ask: Item under review: CC(C)=C1C2CCC1C1C(=O)N(NC(=O)c3ccco3)C(=O)C21 (stereo not shown) . Reported hERG current change (%, negative = inhibition) at 10uM?
Result: -4.72

Ask: And then "CC(=O)Nc1ccc(S(=O)(=O)N[C@@H](C)C(=O)Nc2ccc(N3CCOCC3)cc2)cc1" , what is it?
Result: 15.1

Ask: Another: "COCCCn1c(SCC(=O)Nc2ccc(C(=O)OC)cc2)nc2ccccc2c1=O"
Result: -25.6

Ask: Now consider "COc1ccc(NC(=O)CSc2nc3ccccc3c(=O)n2CCNC(C)=O)c(OC)c1" and answer again.
Result: -25.1

Ask: Repeat for the following molecule: O=C(CN1C(=O)NC(CCc2ccccc2)C1=O)NC1CC1 (stereo not shown)
Result: 18.8
